Cited source for all entries: the CheMixHub viscosity set

- test_name: xn = mol fraction of the nth substance listed
- experimental_context: 303.15 K; 100 kPa; x1 = 0.4989
± gives the uncertainty stated by the source.
Measured viscosity by item
endpoint: viscosity

[[record]]
molecule = "C1CCC2=[NH+]CCCN2CC1.c1nc[n-]n1 + CCCCO"
reading = "74.34 ± 2 mPa·s"

[[record]]
molecule = "C1CCC2=[NH+]CCCN2CC1.c1nc[n-]n1 + CS(C)=O"
reading = "39.73 ± 0.95 mPa·s"

[[record]]
molecule = "C1CCC2=[NH+]CCCN2CC1.c1nc[n-]n1 + CO"
reading = "104.5 ± 3.5 mPa·s"

[[record]]
molecule = "C1CCC2=[NH+]CCCN2CC1.c1nc[n-]n1 + CN(C)C=O"
reading = "25.38 ± 0.59 mPa·s"

[[record]]
molecule = "C1CCC2=[NH+]CCCN2CC1.c1nc[n-]n1 + CC(C)O"
reading = "98.71 ± 3.2 mPa·s"

[[record]]
molecule = "C1CCC2=[NH+]CCCN2CC1.c1nc[n-]n1 + CCO"
reading = "90.79 ± 2.8 mPa·s"


###

Measured viscosity by item
- test_name: xn = mol fraction of the nth substance listed
- experimental_context: 303.15 K; 100 kPa; x1 = 0.2
± gives the uncertainty stated by the source.
endpoint: viscosity

[[record]]
compound = "C1CCC2=[NH+]CCCN2CC1.c1nc[n-]n1 + CCO"
endpoint = "viscosity"
reading = "9.22 ± 0.2 mPa·s"

[[record]]
compound = "C1CCC2=[NH+]CCCN2CC1.c1nc[n-]n1 + CC(C)O"
endpoint = "viscosity"
reading = "11.12 ± 0.24 mPa·s"

[[record]]
compound = "C1CCC2=[NH+]CCCN2CC1.c1nc[n-]n1 + CN(C)C=O"
endpoint = "viscosity"
reading = "3.07 ± 0.07 mPa·s"

[[record]]
compound = "C1CCC2=[NH+]CCCN2CC1.c1nc[n-]n1 + CCCCO"
endpoint = "viscosity"
reading = "12.31 ± 0.28 mPa·s"

[[record]]
compound = "C1CCC2=[NH+]CCCN2CC1.c1nc[n-]n1 + CS(C)=O"
endpoint = "viscosity"
reading = "7.19 ± 0.16 mPa·s"

[[record]]
compound = "C1CCC2=[NH+]CCCN2CC1.c1nc[n-]n1 + CO"
endpoint = "viscosity"
reading = "8.57 ± 0.19 mPa·s"

